System: 171881-019-R-J1-PDC complex spheroid growth, % test/control
assay-remarks: Anticancer human tumor 171881-019-R-J1-PDC patient-derived invasive breast carcinoma cell line growth inhibition [Asc]; active means viability on the fitted dose curve at most 10% of control; inactive means the rest
condition-details: second compound 0.949 µM; first compound 0.316 µM
Select the correct class. Options are active, inactive and nothing else.

**Query** Any idea what this test logged for O=C(c1cc(Cc2n[nH]c(=O)c3ccccc23)ccc1F)N1CCN(C(=O)C2CC2)CC1 + CCN1C(C(=O)NC23CCC(C(=O)O)(CC2)CC3)C(c2cccc(Cl)c2F)C2(C(=O)Nc3cc(Cl)ccc32)C12CCCCC2 ?
**Result** inactive

**Query** For O=C(c1ccc(F)c(F)c1Nc1ccc(I)cc1F)N1CC(O)([C@@H]2CCCCN2)C1 + CCN1C(C(=O)NC23CCC(C(=O)O)(CC2)CC3)C(c2cccc(Cl)c2F)C2(C(=O)Nc3cc(Cl)ccc32)C12CCCCC2 , what call appears in the results of this test?
**Result** inactive

**Query** Hello, I am checking results. What call was entered for COc1c(OCCCN2CCOCC2)ccc2c3n(c(=NC(=O)c4cnc(N)nc4)nc12)CCN3 + CCN1C(C(=O)NC23CCC(C(=O)O)(CC2)CC3)C(c2cccc(Cl)c2F)C2(C(=O)Nc3cc(Cl)ccc32)C12CCCCC2 ?
**Result** active

**Query** Field: outcome | Entry: CNC(C)C(=O)NC1CN(S(=O)(=O)c2cccc(S(=O)(=O)N3CCC4CCC(C(=O)NC(c5ccccc5)c5ccccc5)N4C(=O)C(NC(=O)C(C)NC)C3)c2)CCC2CCC(C(=O)NC(c3ccccc3)c3ccccc3)N2C1=O (centres undefined) + CCN1C(C(=O)NC23CCC(C(=O)O)(CC2)CC3)C(c2cccc(Cl)c2F)C2(C(=O)Nc3cc(Cl)ccc32)C12CCCCC2
**Result** inactive

====

Kindly state IC50 for each of the entries shown.
Tested on: 171881-019-R-J1-PDC complex spheroid growth, % test/control
assay-remarks: Anticancer human tumor 171881-019-R-J1-PDC cell line growth inhibition [Asc]
condition-details: curve of first compound; second compound 0.949 µM

**Query** Would you mind telling me what IC50 value was observed for C=CC(=O)N1CCN(c2nc(=O)n(-c3c(C)ccnc3C(C)C)c3nc(-c4c(O)cccc4F)c(F)cc23)C(C)C1 (stereo not drawn) + CCN1C(C(=O)NC23CCC(C(=O)O)(CC2)CC3)C(c2cccc(Cl)c2F)C2(C(=O)Nc3cc(Cl)ccc32)C12CCCCC2 ?
**Result** > 10 µM

**Query** Which measured IC50 value corresponds to Cn1ncnc1[C@H]1c2n[nH]c(=O)c3cc(F)cc(c23)N[C@@H]1c1ccc(F)cc1 + CCN1C(C(=O)NC23CCC(C(=O)O)(CC2)CC3)C(c2cccc(Cl)c2F)C2(C(=O)Nc3cc(Cl)ccc32)C12CCCCC2 ?
**Result** > 0.1 µM

**Query** IC50 lookup needed for C=C(F)C(=O)N1CCN(c2nc(OCC3CCCN3C)nc3c2CCN(c2cccc4cccc(Cl)c24)C3)CC1CC#N (stereo not drawn) + CCN1C(C(=O)NC23CCC(C(=O)O)(CC2)CC3)C(c2cccc(Cl)c2F)C2(C(=O)Nc3cc(Cl)ccc32)C12CCCCC2 , thanks.
**Result** 5.79 µM

====

Test system: 171881-019-R-J1-PDC complex spheroid growth, % test/control
assay-remarks: Anticancer human tumor 171881-019-R-J1-PDC cell line growth inhibition [Asc];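 on viability, T/C: spheroids exposed to compounds for 7 days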
condition-details: second compound 0.03 µM; first compound 0.01 µM; stronger effect = lower value
Assignment: determine reported viability, T/C for the given compounds.
Numbers only here, please. The scale is %.

**Query** Need viability, T/C of COc1c(OCCCN2CCOCC2)ccc2c3n(c(=NC(=O)c4cnc(N)nc4)nc12)CCN3 + CCN1C(C(=O)NC23CCC(C(=O)O)(CC2)CC3)C(c2cccc(Cl)c2F)C2(C(=O)Nc3cc(Cl)ccc32)C12CCCCC2 , thanks.
**Result** 118

**Query** Given the compound CNC(C)C(=O)NC1CN(S(=O)(=O)c2cccc(S(=O)(=O)N3CCC4CCC(C(=O)NC(c5ccccc5)c5ccccc5)N4C(=O)C(NC(=O)C(C)NC)C3)c2)CCC2CCC(C(=O)NC(c3ccccc3)c3ccccc3)N2C1=O (stereo unspecified) + CCN1C(C(=O)NC23CCC(C(=O)O)(CC2)CC3)C(c2cccc(Cl)c2F)C2(C(=O)Nc3cc(Cl)ccc32)C12CCCCC2 , what is its reported viability, T/C?
**Result** 103

**Query** Need viability, T/C, item O=C(c1ccc(F)c(F)c1Nc1ccc(I)cc1F)N1CC(O)([C@@H]2CCCCN2)C1 + CCN1C(C(=O)NC23CCC(C(=O)O)(CC2)CC3)C(c2cccc(Cl)c2F)C2(C(=O)Nc3cc(Cl)ccc32)C12CCCCC2
**Result** 100

**Query** Give the measured viability, T/C of NC1CCC(NC2CC2c2ccccc2)CC1 (stereo unspecified) + CCN1C(C(=O)NC23CCC(C(=O)O)(CC2)CC3)C(c2cccc(Cl)c2F)C2(C(=O)Nc3cc(Cl)ccc32)C12CCCCC2 .
**Result** 106

**Query** # lookup: viability, T/C of Cn1ncnc1[C@H]1c2n[nH]c(=O)c3cc(F)cc(c23)N[C@@H]1c1ccc(F)cc1 + CCN1C(C(=O)NC23CCC(C(=O)O)(CC2)CC3)C(c2cccc(Cl)c2F)C2(C(=O)Nc3cc(Cl)ccc32)C12CCCCC2
**Result** 103

**Query** viability, T/C lookup needed for CCN1CCN(Cc2ccc(Nc3ncc(F)c(-c4cc(F)c5nc(C)n(C(C)C)c5c4)n3)nc2)CC1 + CCN1C(C(=O)NC23CCC(C(=O)O)(CC2)CC3)C(c2cccc(Cl)c2F)C2(C(=O)Nc3cc(Cl)ccc32)C12CCCCC2 , thanks.
**Result** 86.6

Origin of the recorded values: PubChem BioAssay AID1963428
